// data source = paper PMC8105289

test: shake-flask; details: not told
OUTCOME_MEASURE: log partition n-octanol / aqueous buffer pH 7.4 (log10 concentration ratio)

>>> df
                                   molecule                  unit_text  number
0  O=S1CC(CCc2ccccc2)(NS(=O)(=O)c2ccccc2)C1 (stereo not drawn)  log10 concentration ratio    0.76

(P) O=S(=O)(NC1(CCc2ccccc2)CSC1)c1ccccc1
(Q) O=S1(=O)CC(CCc2ccccc2)(NS(=O)(=O)c2ccccc2)C1
For the pair P and Q , which entry has the numerically smaller recorded log partition n-octanol / aqueous buffer pH 7.4? Identify your selection by its label. Q
(Q: 1.89 log10 concentration ratio, P: 2.96 log10 concentration ratio)

###

assay: Parallel artificial membrane permeability assay; conditions: log of the apparent permeability coefficient
OUTCOME_MEASURE: PAMPA logPapp

In [3]: df
Out[3]:
                                 smiles_repr  number
 0         CN(C)S(=O)(=O)NC1(CCc2ccccc2)COC1   −4.99
 1      O=S(=O)(Nc1cn(-c2ccccc2)nn1)c1ccccc1   −5.39
 2      O=S(=O)(Nc1cc(-c2ccccc2)on1)c1ccccc1   −5.24
 3             CS(=O)(=O)Nc1cn(-c2ccccc2)nn1   −5.62
 4             CS(=O)(=O)NC1(CCc2ccccc2)CSC1    −4.8
 5  CN(C)S(=O)(=O)NC1(CCc2ccccc2)CS(=O)(=O)C1   −5.35
 6     CS(=O)(=O)NC1(CCc2ccccc2)CS(=O)(=O)C1    −5.4
 7  CN(C)S(=O)(=O)N[C@]1(CCc2ccccc2)C[S@+]([O-])C1   −5.47
 8         CN(C)S(=O)(=O)Nc1cn(-c2ccccc2)nn1   −5.42
 9         CC(=O)NC1(CCc2ccccc2)CS(=O)(=O)C1   −5.68
10         CN(C)S(=O)(=O)NC1(CCc2ccccc2)CSC1    −4.9
11             CS(=O)(=O)Nc1cc(-c2ccccc2)on1   −5.94
12      O=S(=O)(NC1(CCc2ccccc2)COC1)c1ccccc1    −5.2
13             CC1(NS(=O)(=O)CCc2ccccc2)COC1   −5.17

###

experiment: shake-flask; settings: not told
OUTCOME_MEASURE: log partition n-octanol / aqueous buffer pH 7.4 (log10 concentration ratio)

(1) CN(C)S(=O)(=O)NC1(CCc2ccccc2)CSC1
(2) CN(C)S(=O)(=O)NC1(CCc2ccccc2)CS(=O)C1 (stereo not drawn)
Which numeric log partition n-octanol / aqueous buffer pH 7.4 is bigger, that of 1 or that of 2 ? Identify your selection by its label. 1

(a) CS(=O)(=O)NC1(CCc2ccccc2)CSC1
(b) CC(=O)NC1(CCc2ccccc2)CS(=O)(=O)C1
Which numeric log partition n-octanol / aqueous buffer pH 7.4 is bigger, that of a or that of b ? Identify your selection by its label. a
(a: 2.44 log10 concentration ratio, b: 1.18 log10 concentration ratio)

###

experiment: potentiometric titration; details: not told
OUTCOME_MEASURE: log partition n-octanol / aqueous buffer pH 7.4 (log10 concentration ratio)

                                smiles_repr                  unit_text  number
0  CN(C)S(=O)(=O)NC1(CCc2ccccc2)CS(=O)(=O)C1  log10 concentration ratio    1.82

(I) O=S(=O)(Nc1cc(-c2ccccc2)on1)c1ccccc1
(II) CS(=O)(=O)Nc1cc(-c2ccccc2)on1
(III) CS(=O)(=O)Nc1cn(-c2ccccc2)nn1
Ascending by log partition n-octanol / aqueous buffer pH 7.4, please: list the compounds accordingly. Order the labels as requested and list them. II, III, I
(II: −0.42 log10 concentration ratio, III: 0.06 log10 concentration ratio, I: 0.99 log10 concentration ratio)
